Origin of the recorded values: patent US20230129359A1

Test System: human M4 receptor (Homo sapiens)
Construct: expressed in transfected cells; host or cells: CHO cells
Sequence (P08173 1-479): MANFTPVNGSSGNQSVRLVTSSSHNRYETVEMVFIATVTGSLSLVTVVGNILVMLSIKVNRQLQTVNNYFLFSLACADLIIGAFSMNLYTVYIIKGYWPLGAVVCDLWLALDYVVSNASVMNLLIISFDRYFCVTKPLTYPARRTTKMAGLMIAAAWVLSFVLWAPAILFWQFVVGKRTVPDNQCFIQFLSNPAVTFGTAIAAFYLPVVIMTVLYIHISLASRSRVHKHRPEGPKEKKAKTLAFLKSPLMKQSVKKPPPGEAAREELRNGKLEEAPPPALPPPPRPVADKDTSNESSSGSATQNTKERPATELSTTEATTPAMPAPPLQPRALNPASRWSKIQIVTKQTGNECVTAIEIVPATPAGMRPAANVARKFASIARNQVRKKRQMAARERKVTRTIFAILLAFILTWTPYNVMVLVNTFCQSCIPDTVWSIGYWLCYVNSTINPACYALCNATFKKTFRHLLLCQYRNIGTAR
Test Details: Radioligand ([3H]N-methylscopolamine) binding assay, membranes from CHO cells expressing human M4 receptor
Measurement Context: Ki against human M4 receptor; membranes from CHO cells; tritiated N-methylscopolamine 1.5 nM; read-out: K
pKi: −log10 of the molar value.
Measurement Type: pKi

C[C@@H]1CN(c2cnc3cc(C(F)(F)F)ccc3n2)C[C@H](C)N1C(=O)OC1CC2(C1)CN(Cc1ccccc1)C2	> 8.00
C[C@@H]1CN(c2nc3ncc(C(F)(F)F)cc3s2)[C@@H](C)CN1C(=O)OC1CC2(C1)CN(Cc1ccccc1)C2	7.00 to 8.00
COc1ccc2nc(N3C[C@@H](C)N(C(=O)NC4CC5(C4)CN(Cc4ccccc4)C5)C[C@@H]3C)cnc2c1	> 8.00
C[C@@H]1CN(c2nc3cc(F)ccc3s2)C[C@H](C)N1C(=O)OC1CC2(C1)CN(Cc1ccccc1)C2	> 8.00
C[C@@H]1CN(c2ncc(C(F)(F)F)cn2)[C@@H](C)CN1C(=O)OC1CC2(C1)CN(Cc1ccc(F)cc1)C2	> 8.00
C[C@@H]1CN(c2nc3ccc(C(F)(F)F)cc3s2)C[C@H](C)N1C(=O)OC1CC2(C1)CN(Cc1ccc(F)cc1)C2	> 8.00
C[C@@H]1CN(c2ncc(C(=O)N(C)C)cn2)C[C@H](C)N1C(=O)OC1CC2(C1)CN(Cc1ccccc1)C2	6.00 to 7.00
